- tested.system: Epidermal Growth Factor Receptor 2 (HER2) (human, UniProt P04626 23-1255)
- protocol.description: cell-based or functional assay
measurement.kind: inhibition of SKBR3 cell proliferation ([3H]-thymidine), 50 nM Nanobody

Consider the worked cases shown below.
For 2A4 (VHH, C-term myc-His6 tag) VHH: EVQLVESGGGLVQPGGSLRLSCAASGFIFDDYAMSWVRQAPGKGLEWVSAINWSGSHRNYADSVKGRFTISRDNAKKTVYLQMNSLQSEDTAVYYCGTGWQSTTKNQGYWGQGTQVTVSS , write its inhibition of SKBR3 cell proliferation ([3H]-thymidine), 50 nM Nanobody.
~30%

For 2C3 (VHH, C-term myc-His6 tag) VHH: EVQLVESGGGLVQPGGSLRLSCVASGFSLDDYGMTWVRQAPGKGLEWVSSINWSGTHTDYADSVKGRFTISRDNAKNTLFLQMNSLRSEDTAVYYCNQGWKIVPTDRTGHGTQVTVSS , write its inhibition of SKBR3 cell proliferation ([3H]-thymidine), 50 nM Nanobody.
~30%

For 2A5 (VHH, C-term myc-His6 tag) VHH: EVQLVESGGGLVQPGGSLRLSCATSGFTFDDYAMTWVRQAPGKGLEWVSSINWSGTHTDYTDSVKGRFTISRNNANNTLYLQMNSLKSEDTAVYYCAKNWGDAGTTWFEKSGSAGQGTQVTVSS , write its inhibition of SKBR3 cell proliferation ([3H]-thymidine), 50 nM Nanobody.
~18%

Now examine the next entry.
For 2D3 (VHH, C-term myc-His6 tag; also called NB-2D3; Nb-2D3) VHH: EVQLVESGGSLVQPGGSLRLSCAASGFTFDDYAMSWVRQVPGKGLEWVSSINWSGTHTDYADSVKGRFTISRNNANNTLYLQMNSLKSEDTAVYYCAKNWRDAGTTWFEKSGSAGQGTQVTVSS , write its inhibition of SKBR3 cell proliferation ([3H]-thymidine), 50 nM Nanobody.
~30%
